tested on: LXFL 529; assay: NCI tumour cell line growth inhibition, 48 h
Active and inactive are the calls of the source. Rule as the data show it: active = GI50 up to about 1.1 µM and inactive = higher.
Measured GI50 accompanies every entry in the list below.

- COMPOUND: "COC1(C)C(=O)N2C1N(C(=O)OCc1ccccc1)CC2(C)C (centres undefined)"
  GI50: "> 100 µM (inactive)"
- COMPOUND: "O.O=C([O-])c1ccccc1Nc1ccccc1C(=O)[O-].[Zn+2]"
  GI50: "22.1 µM (inactive)"
- COMPOUND: "N/C(=C\\c1ccc(/C=C(\\NC(=O)c2ccccc2)c2nc3c([nH]2)C(=O)c2ccccc2C3=O)cc1)c1nc2c([nH]1)C(=O)c1ccccc1C2=O"
  GI50: "10.7 µM (inactive)"
- COMPOUND: "O=C(c1ccccc1)C(c1ccccc1)C1(O)C(=O)Nc2c(Cl)cc(Cl)cc21 (centres undefined)"
  GI50: "11.4 µM (inactive)"
- COMPOUND: "CNC(=O)N(CCCC(NC(C)=O)C(=O)NCc1ccccc1)Cc1ccccc1 (centres undefined)"
  GI50: "> 100 µM (inactive)"

Enquiry: Supply reported GI50 belonging to this compound: N=C(N)C1=C(O)NC(=O)N(C2CCCCC2)C1
Return: > 100 µM (inactive)

Enquiry: Supply reported GI50 belonging to this compound: NC(=O)c1nnn(Cc2cc(Cl)c(C(=O)c3ccc(Cl)cc3)c(Cl)c2)c1N
Return: > 9.1 µM (inactive)

Enquiry: Supply reported GI50 belonging to this compound: CC1(C)OC(C[C@]2(C#N)C[C@H](CCl)OC(C)(C)O2)C[C@@H](C[C@]2(C#N)C[C@H](CCl)OC(C)(C)O2)O1 (some centres undefined)
Return: > 100 µM (inactive)

Enquiry: Supply reported GI50 belonging to this compound: COCN1C(=O)C2CC(/C=C/C(N)=O)=CN2C(=O)c2ccccc21 (centres undefined)
Return: > 100 µM (inactive)

----------
system: KM12; assay: NCI tumour cell line growth inhibition, 48 h
The source made the active and inactive calls. Rule as the data show it: active = GI50 up to about 1.1 µM and inactive = higher.
VALUE_TYPE: GI50

Enquiry: Supply reported GI50 belonging to this compound: O=[N+]([O-])/C=C\c1c[nH]c2ccc(OCc3ccccc3)cc12
Return: 2.09 µM (inactive)

----------
system: IGROV-1; assay: NCI tumour cell line growth inhibition, 48 h
Activity calls are given as the source filed them. Cut-off read from the data, not from the text of the source: active = GI50 up to about 1.1 µM and inactive = higher.
I would appreciate it if you answered using one of these outcomes: yes (1) (active), no (0) (inactive)

Consider the worked cases shown below.
- COMPOUND: "CCOC(=O)C(=Cc1[nH]c2ccccc2c1-c1c[nH]c2ccccc12)C(=O)OCC"
  ASSIGNED_LABEL: "no (0)"
- COMPOUND: "Cc1ccc2nc3c(C(=O)NCCN(C)C)cccc3nc2c1"
  ASSIGNED_LABEL: "no (0)"
- COMPOUND: "N#CC(c1cc(Cl)ncn1)c1nc2ccccc2s1 (centres undefined)"
  ASSIGNED_LABEL: "no (0)"
- COMPOUND: "COc1c2c(cc3c1-c1c(cc4c(c1OC)OCO4)C1OC3C(C)C1C)OCO2.COc1cc2c(c(OC)c1OC)-c1c(cc3c(c1OC)OCO3)C1OC2C(C)C1C (centres undefined)"
  ASSIGNED_LABEL: "no (0)"
- COMPOUND: "CCOC(=O)C(=[N+]=[N-])C(=O)CN1C(=O)c2ccccc2C1=O"
  ASSIGNED_LABEL: "no (0)"

Enquiry: What did this assay record as the result for Cc1[nH]c2ccccc2c1C(=O)/C=C/c1ccccc1O ?
Return: no (0)

Enquiry: What did this assay record as the result for COc1cc2c(cc1OCCCOc1cc(-c3ccc(F)cc3)nc(C)n1)N=C[C@@H]1CCCN1C2=O ?
Return: no (0)

Enquiry: What did this assay record as the result for CC(=O)NC1=C[C@@H]([C@H]2COC(C)(C)O2)OC1=O ?
Return: no (0)

----------
tested on: HOP-62; assay: NCI tumour cell line growth inhibition, 48 h
Activity calls are given as the source filed them. Rule as the data show it: active = GI50 up to about 1.1 µM and inactive = higher.
I would appreciate it if you answered using one of these outcomes: True for active, False for inactive

Consider the worked cases shown below.
- MOLECULE: "COCN1C(=O)C2CC(/C=C/C(N)=O)=CN2C(=O)c2ccccc21 (centres undefined)"
  ASSIGNED_LABEL: "False"
- MOLECULE: "CC[C@@]1(O)C(=O)OCc2c1cc1n(c2=O)Cc2c-1nc1ccccc1c2/C=N\\c1ccc(N[C@@H]2c3cc4c(cc3[C@@H](c3cc(OC)c(O)c(OC)c3)[C@H]3C(=O)OC[C@@H]32)OCO4)cc1"
  ASSIGNED_LABEL: "True"
- MOLECULE: "N#CC(c1cc2c(cc1Br)OCO2)N1CCOCC1 (centres undefined)"
  ASSIGNED_LABEL: "False"
- MOLECULE: "NC(=O)C(c1ccccc1)N1OC2C(=O)N(Cc3ccccc3)C(=O)C2C1c1cccc(Oc2ccc(Cl)cc2)c1 (centres undefined)"
  ASSIGNED_LABEL: "False"
- MOLECULE: "COc1cc2c(c3c1c(=O)c1ccccc1n3C)C=C([N+](=O)[O-])C(C)(C)O2"
  ASSIGNED_LABEL: "False"
- MOLECULE: "O=C1Nc2ccc(Br)cc2/C1=N/NC(=S)Nc1ccc([N+](=O)[O-])cc1"
  ASSIGNED_LABEL: "False"
- MOLECULE: "O=C(O)c1ccc(Nc2nc3ccc(C(F)(F)F)cc3nc2-c2ccccc2)cc1"
  ASSIGNED_LABEL: "False"
- MOLECULE: "CCOc1ccc(/C=C2/C(=O)N/C(=N\\C(C)=O)N2C)cc1"
  ASSIGNED_LABEL: "False"

Enquiry: What did this assay record as the result for COC1OC(C)C2OC(C)(C)OC2C1OC(C)=O (centres undefined) ?
Return: False

----------
tested on: MDA-MB-231; experiment: NCI tumour cell line growth inhibition, 48 h
The source made the active and inactive calls. Rule as the data show it: active = GI50 up to about 1.1 µM and inactive = higher.
I would appreciate it if you answered using one of these outcomes: active, inactive

Consider the worked cases shown below.
- COMPOUND_STRUCTURE_STRING: "OC(C/C(=N\\N1CCCCC1)c1cccs1)(C(F)(F)F)C(F)(F)F"
  ASSAYED_TARGET: "MDA-MB-231"
  ASSIGNED_LABEL: "inactive"
- COMPOUND_STRUCTURE_STRING: "CC1(C)O[C@@H]2[C@@H](COC(=O)c3ccccc3)C[C@@H](C#N)[C@@H]2O1"
  ASSAYED_TARGET: "MDA-MB-231"
  ASSIGNED_LABEL: "inactive"
- COMPOUND_STRUCTURE_STRING: "Cc1cc(-c2nc3ccccc3s2)ccc1N"
  ASSAYED_TARGET: "MDA-MB-231"
  ASSIGNED_LABEL: "inactive"

Enquiry: What did this assay record as the result for O=c1[nH]c2ccccc2nc1CBr ?
Return: inactive

Enquiry: What did this assay record as the result for COc1ccc(-c2oc3c(CC(=O)O)cccc3c(=O)c2OC)cc1 ?
Return: inactive

Enquiry: What did this assay record as the result for O=C(NC(=O)c1ccccc1[N+](=O)[O-])Nc1ccc(Oc2ncc(Cl)cn2)c([N+](=O)[O-])c1 ?
Return: active

Enquiry: What did this assay record as the result for O=C1C(Cl)=C(N2CCN(CCOCCO)CC2)C(=O)c2ncccc21 ?
Return: inactive

Enquiry: What did this assay record as the result for O=C(CNc1ccc(Cl)cc1)Nn1c(-c2ccccc2)nc2ccccc2c1=O ?
Return: inactive

Enquiry: What did this assay record as the result for Cn1c(=O)c2c(nc(-n3nc(-c4ccc(Cl)cc4)cc3N)n2C)n(C)c1=O ?
Return: inactive

Enquiry: What did this assay record as the result for COc1ccc([C@H]2[C@H]3COC(=O)[C@H]3C(C#N)=C3Sc4ccccc4N32)cc1 ?
Return: inactive

----------
tested on: NCI-H522; assay: NCI tumour cell line growth inhibition, 48 h
Calls of active or inactive are those of the source. Cut-off read from the data, not from the text of the source: active = GI50 up to about 1.1 µM and inactive = higher.
VALUE_TYPE: GI50

Some compounds with recorded GI50:
- COMPOUND: "C=CCNC(=O)NC1=CSC2=NC(=O)C3(NN12)c1ccccc1-c1ccccc13"
  VALUE_TYPE: "GI50"
  RESULT: "> 10 µM (inactive)"
- COMPOUND: "CCNC1(c2cccc(C)c2)OC(C)(C)c2cccc3cccc1c23 (stereo unspecified)"
  VALUE_TYPE: "GI50"
  RESULT: "15.1 µM (inactive)"
- COMPOUND: "CCCC(=O)Nc1ncnc2c1ncn2C1OC2COP(=O)(O)OC2C1OC(=O)CCC (stereo unspecified)"
  VALUE_TYPE: "GI50"
  RESULT: "> 100 µM (inactive)"
- COMPOUND: "CC(C)(C)n1c(=O)n2n(c1=O)C1c3cccc4cccc(c34)C2C2c3cccc4cccc(c34)C1n1c(=O)n(C(C)(C)C)c(=O)n12"
  VALUE_TYPE: "GI50"
  RESULT: "36 µM (inactive)"
- COMPOUND: "CCCCOc1ccc(OCCCCCCCCCC[N+](C)(C)C)cc1"
  VALUE_TYPE: "GI50"
  RESULT: "1.7 µM (inactive)"

Enquiry: Supply reported GI50 belonging to this compound: CCOC(=O)C1S/C(=N\C(=N)N[N+](=O)[O-])N=C1C (stereo unspecified)
Return: > 100 µM (inactive)
